# target-or-test-system: N-type Ca2+ channels in IMR-32 cells (Homo sapiens, UniProt Q00975)
# Sequence (Q00975 whole entry): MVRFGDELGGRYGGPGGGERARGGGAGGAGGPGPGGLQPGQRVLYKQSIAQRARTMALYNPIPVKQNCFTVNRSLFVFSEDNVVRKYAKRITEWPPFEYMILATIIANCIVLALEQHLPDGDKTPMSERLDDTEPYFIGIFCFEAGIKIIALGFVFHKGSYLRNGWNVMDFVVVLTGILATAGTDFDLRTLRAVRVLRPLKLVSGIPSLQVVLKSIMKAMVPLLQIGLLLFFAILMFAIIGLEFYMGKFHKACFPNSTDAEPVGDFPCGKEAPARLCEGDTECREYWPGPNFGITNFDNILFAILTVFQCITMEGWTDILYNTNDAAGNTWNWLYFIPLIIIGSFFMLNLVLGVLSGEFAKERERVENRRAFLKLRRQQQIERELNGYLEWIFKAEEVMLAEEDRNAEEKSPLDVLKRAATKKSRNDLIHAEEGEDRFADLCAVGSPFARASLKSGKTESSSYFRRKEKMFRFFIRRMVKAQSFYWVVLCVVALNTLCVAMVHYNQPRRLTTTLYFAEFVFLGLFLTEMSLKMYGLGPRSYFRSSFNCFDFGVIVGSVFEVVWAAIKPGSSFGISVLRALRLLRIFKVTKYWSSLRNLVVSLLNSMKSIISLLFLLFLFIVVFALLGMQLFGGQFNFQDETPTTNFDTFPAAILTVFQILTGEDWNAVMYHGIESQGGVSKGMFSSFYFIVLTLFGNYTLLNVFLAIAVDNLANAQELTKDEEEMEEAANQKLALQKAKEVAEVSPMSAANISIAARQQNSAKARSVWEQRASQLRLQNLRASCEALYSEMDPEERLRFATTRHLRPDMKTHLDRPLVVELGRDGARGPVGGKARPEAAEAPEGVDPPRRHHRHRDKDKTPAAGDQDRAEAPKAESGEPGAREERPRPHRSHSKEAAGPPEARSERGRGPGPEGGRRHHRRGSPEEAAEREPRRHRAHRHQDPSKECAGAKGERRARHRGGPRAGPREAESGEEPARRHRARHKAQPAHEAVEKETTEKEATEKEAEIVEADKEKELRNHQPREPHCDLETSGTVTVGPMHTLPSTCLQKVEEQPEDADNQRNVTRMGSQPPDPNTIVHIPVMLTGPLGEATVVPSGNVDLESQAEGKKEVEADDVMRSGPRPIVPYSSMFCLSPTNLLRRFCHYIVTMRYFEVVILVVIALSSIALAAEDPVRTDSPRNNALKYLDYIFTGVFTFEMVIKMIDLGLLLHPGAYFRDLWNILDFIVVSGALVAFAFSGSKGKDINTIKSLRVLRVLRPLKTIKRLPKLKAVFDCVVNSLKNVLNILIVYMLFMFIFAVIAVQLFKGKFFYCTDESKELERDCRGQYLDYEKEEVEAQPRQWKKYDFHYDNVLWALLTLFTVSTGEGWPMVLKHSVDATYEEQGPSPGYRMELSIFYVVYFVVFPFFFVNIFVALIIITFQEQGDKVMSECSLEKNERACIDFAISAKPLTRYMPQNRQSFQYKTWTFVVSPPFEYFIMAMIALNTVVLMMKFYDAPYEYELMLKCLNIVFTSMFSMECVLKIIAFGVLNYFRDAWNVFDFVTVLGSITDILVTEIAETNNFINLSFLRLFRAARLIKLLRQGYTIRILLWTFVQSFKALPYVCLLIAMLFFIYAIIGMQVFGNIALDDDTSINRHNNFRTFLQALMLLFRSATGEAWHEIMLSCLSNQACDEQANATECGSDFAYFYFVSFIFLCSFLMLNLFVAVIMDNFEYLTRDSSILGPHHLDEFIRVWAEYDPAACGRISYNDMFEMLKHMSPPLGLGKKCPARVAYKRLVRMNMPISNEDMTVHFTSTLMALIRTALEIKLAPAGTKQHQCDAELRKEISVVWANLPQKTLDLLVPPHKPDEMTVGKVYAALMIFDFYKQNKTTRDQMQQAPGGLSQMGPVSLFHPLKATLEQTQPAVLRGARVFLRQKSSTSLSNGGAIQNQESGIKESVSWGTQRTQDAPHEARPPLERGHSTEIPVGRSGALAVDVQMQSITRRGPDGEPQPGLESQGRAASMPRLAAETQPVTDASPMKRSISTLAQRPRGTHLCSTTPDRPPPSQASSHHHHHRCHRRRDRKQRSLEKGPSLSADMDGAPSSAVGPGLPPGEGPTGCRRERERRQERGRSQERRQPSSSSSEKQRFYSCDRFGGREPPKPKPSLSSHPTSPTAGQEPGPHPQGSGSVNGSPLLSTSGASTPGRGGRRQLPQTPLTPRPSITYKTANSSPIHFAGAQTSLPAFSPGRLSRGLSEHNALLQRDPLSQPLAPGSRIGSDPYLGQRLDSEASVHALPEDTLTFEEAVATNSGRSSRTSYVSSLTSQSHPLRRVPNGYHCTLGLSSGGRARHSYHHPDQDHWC
# Sequence (P54289 25-956 partner limits assumed): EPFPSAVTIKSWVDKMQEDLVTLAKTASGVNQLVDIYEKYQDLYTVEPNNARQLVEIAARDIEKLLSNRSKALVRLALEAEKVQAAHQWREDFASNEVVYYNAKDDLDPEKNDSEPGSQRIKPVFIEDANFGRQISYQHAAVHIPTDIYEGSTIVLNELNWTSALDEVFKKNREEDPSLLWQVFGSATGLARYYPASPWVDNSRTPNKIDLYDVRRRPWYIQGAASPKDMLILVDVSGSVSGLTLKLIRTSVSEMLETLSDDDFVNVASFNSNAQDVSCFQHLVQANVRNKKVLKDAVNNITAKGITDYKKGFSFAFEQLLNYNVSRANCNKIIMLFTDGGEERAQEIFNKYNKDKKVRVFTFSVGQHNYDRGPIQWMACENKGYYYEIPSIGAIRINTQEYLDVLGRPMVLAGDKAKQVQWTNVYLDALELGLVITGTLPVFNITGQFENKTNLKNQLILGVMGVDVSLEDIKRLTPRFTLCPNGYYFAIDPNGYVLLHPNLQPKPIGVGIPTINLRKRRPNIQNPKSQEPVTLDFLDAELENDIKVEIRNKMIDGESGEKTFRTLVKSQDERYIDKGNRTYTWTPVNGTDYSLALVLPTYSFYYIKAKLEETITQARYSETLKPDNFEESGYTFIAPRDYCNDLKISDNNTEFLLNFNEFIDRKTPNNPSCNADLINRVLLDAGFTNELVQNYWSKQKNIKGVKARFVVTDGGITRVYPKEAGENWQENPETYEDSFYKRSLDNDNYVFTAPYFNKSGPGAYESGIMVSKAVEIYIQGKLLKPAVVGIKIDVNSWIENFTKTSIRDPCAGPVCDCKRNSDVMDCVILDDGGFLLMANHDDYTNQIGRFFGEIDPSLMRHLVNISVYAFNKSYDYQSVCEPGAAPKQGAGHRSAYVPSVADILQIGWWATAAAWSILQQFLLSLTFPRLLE
# Sequence (P54289 957-1103 partner limits assumed): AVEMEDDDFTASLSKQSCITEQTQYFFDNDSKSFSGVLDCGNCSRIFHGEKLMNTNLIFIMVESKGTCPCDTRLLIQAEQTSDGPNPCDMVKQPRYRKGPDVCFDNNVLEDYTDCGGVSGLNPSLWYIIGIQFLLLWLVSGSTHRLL
# Sequence (P54284 whole entry partner): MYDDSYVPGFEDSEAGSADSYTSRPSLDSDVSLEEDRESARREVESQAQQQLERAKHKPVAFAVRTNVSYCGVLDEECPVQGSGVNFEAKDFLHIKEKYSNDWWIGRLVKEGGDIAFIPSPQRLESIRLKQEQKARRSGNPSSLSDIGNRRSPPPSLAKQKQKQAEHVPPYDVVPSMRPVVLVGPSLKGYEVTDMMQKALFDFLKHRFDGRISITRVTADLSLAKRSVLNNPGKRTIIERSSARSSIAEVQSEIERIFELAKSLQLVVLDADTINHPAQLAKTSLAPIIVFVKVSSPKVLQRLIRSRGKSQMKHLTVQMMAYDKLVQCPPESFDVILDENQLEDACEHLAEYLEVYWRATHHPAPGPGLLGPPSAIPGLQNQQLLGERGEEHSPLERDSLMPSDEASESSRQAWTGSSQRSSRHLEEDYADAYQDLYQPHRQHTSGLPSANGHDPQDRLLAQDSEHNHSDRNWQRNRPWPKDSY
# test-description: Inhibition of N-type calcium flux in IMR-32 cells (Indo-1 fluorescence, nitrendipine present)
# applied-conditions: IMR-32 cells, 5 μM nitrendipine, K+ depolarization
quantity: IC50 (nM)
One number for each entry, in nM.

Consider the following illustrative entries.
COc1ccc(NC(=O)[C@H](Cc2ccc(OCc3ccccc3)cc2)NC(=O)[C@H](CC(C)C)NC(=O)N2CCCCCC2)cc1 [Example 210] :: 1500
O=C(NCCN1CCCCC1)[C@H](Cc1ccc(OCc2ccccc2)cc1)NC(=O)[C@H](Cc1ccc(Br)cc1)NC(=O)N1CCCCCC1 [Example 157] :: 2300
CC(C)CC(NC(=O)N1CCCCCC1)C(=O)NC(Cc1ccc(OCc2ccccc2)cc1)C(=O)NCCCN1CCCCC1C (stereo not drawn) [Example 196] :: 700

Field: IC50. Fill in for each record below.
1. CC(C)C[C@H](NC(=O)N1CCCCCC1)C(=O)N[C@@H](Cc1ccc(OCc2ccccc2)cc1)C(=O)NCCCO [Example 255]
2. CC(C)C[C@H](NC(=O)N1CCCCCC1)C(=O)N[C@@H](Cc1ccc(OCc2ccccc2)cc1)C(=O)NCc1ccc(CN)cc1 [Example 217]
3. CCN(CC)C(=O)C1CCCN(C(=O)C(Cc2ccc(OCc3ccccc3)cc2)NC(=O)C(CC(C)C)NC(=O)N2CCCCCC2)C1 (stereo not drawn) [Example 188]

Reply |
1: 4300; 2: 5000; 3: 780

###

I'd be grateful if you could share measured Inhibition of N-type Ca2+ Current, % Inhibition at 10 μM for these entries.
# target-or-test-system: N-type Ca2+ channels in superior cervical ganglion (SCG) neurons (Rattus norvegicus, UniProt Q02294)
# Construct: from tissue
# test-description: Whole-cell voltage clamp, N-type Ca2+ current in SCG neurons
# Type: cell-based
# applied-conditions: 10 μM
Answers are plain numbers, in %.

Consider the following illustrative entries.
CC(C)C[C@H](NC(=O)c1ccccc1)C(=O)N[C@@H](Cc1ccc(OCc2ccccc2)cc1)C(=O)OC(C)(C)C (relative stereo) [Example 130] :: −7
CCCCNC(=S)N[C@@H](CC(C)C)C(=O)N[C@@H](Cc1ccc(OCc2ccccc2)cc1)C(=O)OC(C)(C)C (relative stereo) [Example 49] :: 45
C[C@H](NC(=O)N1CCCCCC1)C(=O)N[C@@H](Cc1ccc(OCc2ccccc2)cc1)C(=O)OC(C)(C)C (relative stereo) [Example 7] :: 81
CC(C)C[C@H](NC(=O)N1CCCCCC1)C(=O)N[C@@H](Cc1ccc(OCc2ccccc2)cc1)C(=O)N1CCN(Cc2ccccc2)CC1 (relative stereo) [Example 180] :: 81
CC(C)(C)NC(=O)[C@H](Cc1ccc(OCc2ccccc2)cc1)NC(=O)[C@@H]1CC2CCCCC2N1C(=O)N1CCCCCC1 (relative stereo) [Example 161] :: 61
CC(C)CC(NC(=O)N1CCCCCC1)C(=O)NC(Cc1ccc(OCc2ccccc2)cc1)C(=O)NC(C)C(C)C (centres unmarked) [Example 192] :: 58
CC(C)C[C@H](NC(=O)N1CCN(C)CC1)C(=O)N[C@@H](Cc1ccc(OCc2ccccc2)cc1)C(=O)OC(C)(C)C (relative stereo) [Example 9] :: 81

Turning now to a further compound:
Ask | Dear colleague, I am looking for the recorded Inhibition of N-type Ca2+ Current, % Inhibition at 10 μM of the following compound: CC(C)(C)OC(=O)[C@H](Cc1ccc(OCc2ccccc2)cc1)NC(=O)CNC(=O)N1CCCCCC1 (stereo in doubt) [Example 8]
Reply | 86

###

# target-or-test-system: N-type Ca2+ channels in IMR-32 cells (Homo sapiens)
# Construct: host or cells: IMR-32 cells, differentiated with dibutyryl cAMP and bromodeoxyuridine
# test-description: Inhibition of N-type calcium flux in IMR-32 cells (Indo-1 fluorescence, nitrendipine present)
# Format: cell-based
# applied-conditions: IMR-32
I'd be grateful if you could share measured inhibition at 1 µM for these entries.
Answers are plain numbers, in %.

Field: inhibition at 1 µM. Fill in for each record below.
1. CC(C)C[C@H](NC(=O)N1CCCCCC1)C(=O)N[C@@H](Cc1ccc(OCC2CCCCC2)cc1)C(=O)OC(C)(C)C [Example 30]
2. CC(C)C[C@H](NC(=O)N1CCCCCC1)C(=O)N[C@@H](Cc1ccc(OCc2ccccc2)cc1)C(=O)Nc1ccc(Oc2ccccc2)cc1 [Example 213]
3. CC(C)CC(NC(=O)N1CCCCCC1)C(=O)NC(Cc1ccc(OCc2ccccc2)cc1)C(=O)NC(C)CN(C)C (stereo not shown) [Example 230]

Reply |
56
30
34

Field: inhibition at 1 µM. Fill in for each record below.
1. CC(C)C[C@H](NC(=S)Nc1ccccc1Cl)C(=O)N[C@@H](Cc1ccc(OCc2ccccc2)cc1)C(=O)OC(C)(C)C [Example 48]
2. CC(C)C[C@H](NC(=O)N1CCCCCC1)C(=O)N[C@@H](Cc1ccc(C=CC2(O)CCCCC2)cc1)C(=O)NC(C)(C)C [Example 143]
3. CC(C)C[C@H](NC(=O)N1CCCCCC1)C(=O)N[C@@H](Cc1ccc(OCc2ccccc2)cc1)C(N)=O [Example 21]
4. CC(C)C[C@H](NC(=O)N1CCCCCC1)C(=O)N[C@@H](Cc1ccc(CCC2(O)CCCCC2)cc1)C(=O)NC(C)(C)C [Example 148]

Reply |
1: 52; 2: 7; 3: 26; 4: 30

Field: inhibition at 1 µM. Fill in for each record below.
1. CC(=O)N1CCN(C(=O)[C@H](Cc2ccc(OCc3ccccc3)cc2)NC(=O)[C@H](CC(C)C)NC(=O)N2CCCCCC2)CC1 [Example 204]
2. CC(C)C[C@H](NC(=O)N1CCCCCC1)C(=O)N[C@@H](Cc1ccc(OCc2ccccc2)cc1)C(=O)NCCCN1CCN(C)CC1 [Example 187]
3. COc1ccc(NC(=O)[C@H](Cc2ccc(OCc3ccccc3)cc2)NC(=O)[C@H](CC(C)C)NC(=O)N2CCCCCC2)cc1 [Example 210]

Reply |
13
20
39

Field: inhibition at 1 µM. Fill in for each record below.
1. CC(C)C[C@H](NC(=O)N1CCCCCC1)C(=O)N[C@@H](Cc1ccc(OCc2ccccc2)cc1)C(=O)Nc1ccc(CCO)cc1 [Example 211]
2. CC(C)C[C@H](NC(=O)N1CCCCCC1)C(=O)N[C@@H](Cc1ccc(OCc2ccccc2)cc1)C(=O)Nc1nccs1 [Example 207]
3. CC(C)C[C@H](NS(=O)(=O)c1ccc(C(C)(C)C)cc1)C(=O)N[C@@H](Cc1ccc(OCc2ccccc2)cc1)C(=O)OC(C)(C)C [Example 36]

Reply |
1. 49
2. 21
3. 71

###

# target-or-test-system: N-type Ca2+ channels in IMR-32 cells (Homo sapiens, UniProt Q00975)
# test-description: Inhibition of N-type calcium flux in IMR-32 cells (Indo-1 fluorescence, nitrendipine present)
# applied-conditions: IMR-32 cells, 5 μM nitrendipine, K+ depolarization
quantity: pIC50
Give bare numbers, as −log10 of the molar value.

Field: pIC50. Fill in for each record below.
1. CCCCNC(=S)N[C@@H](CC(C)C)C(=O)N[C@@H](Cc1ccc(OCc2ccccc2)cc1)C(=O)OC(C)(C)C (relative stereo) [Example 49]
2. CC(C)C[C@H](NS(=O)(=O)c1ccc([N+](=O)[O-])cc1)C(=O)N[C@@H](Cc1ccc(OCc2ccccc2)cc1)C(=O)OC(C)(C)C (relative stereo) [Example 39]

Reply |
6.57
6.28

Field: pIC50. Fill in for each record below.
1. CC(C)(C)OC(=O)[C@@H](Cc1ccc(OCc2ccccc2)cc1)NC(=O)[C@H](Cc1c[nH]c2ccccc12)NC(=O)N1CCCCCC1 [Example 17]
2. CC(C)C[C@H](NC(=O)N1CCCCCC1)C(=O)N[C@@H](Cc1ccc(OCc2ccccc2)cc1)C(=O)N1CCN(CCO)CC1 [Example 202]

Reply |
5.73
5.55

Field: pIC50. Fill in for each record below.
1. CC(C)C[C@H](NC(=O)N1CCCCCC1)C(=O)N[C@@H](Cc1ccc(OCc2ccccc2)cc1)C(=O)NC(C)(C)CO [Example 266]
2. CC(C)C[C@H](NC(=O)N1CCCCCC1)C(=O)N[C@@H](Cc1ccc(OCc2ccccc2)cc1)C(=O)NCCN1CCOCC1 [Example 186]
3. CC(C)C[C@H](NC(=O)N1CCCCCC1)C(=O)N[C@@H](Cc1ccc(OCc2ccccc2)cc1)C(=O)Nc1cccc(C(F)(F)F)c1 [Example 214]
4. CC(C)[C@H](NC(=O)N1CCCCCC1)C(=O)N[C@@H](Cc1ccc(OCc2ccccc2)cc1)C(=O)OC(C)(C)C [Example 6]

Reply |
1: 5.74; 2: 5.74; 3: 5.85; 4: 6.14

Every entry's value here was drawn from patent US6423689B1.
